details: in sec-butanol, 303.15 K
Observed property: solubility (mole fraction)
Answers are plain numbers.

Could you tell me which solubility (mole fraction) is on file for CC(C)(c1ccc(O)cc1)c1ccc(O)cc1 ?
0.083

---

conditions: in ethanol, 278.15 K
Observed property: solubility (mole fraction)
Give bare numbers.

Reported solubility (mole fraction) for CC(C)(c1ccc(O)cc1)c1ccc(O)cc1 : what is it?
0.215

---

conditions: in ethanol, 288.15 K
Observed property: solubility (mole fraction)

What value of solubility (mole fraction) has been recorded for this entry: CC(C)(c1ccc(O)cc1)c1ccc(O)cc1
0.227

---

conditions: in n-propanol, 308.15 K
Observed property: solubility (mole fraction)
Numbers only.

Look up solubility (mole fraction) for this compound: CC(C)(c1ccc(O)cc1)c1ccc(O)cc1
0.22
